Hi there, I'd appreciate the recorded cytotoxicity at 10 µM for every entry that follows.
assay: Toxicity liver stage against HepG2, at 10uM; type: cell-based; design: test concentration 10 uM, cell line HepG2-A16-CD81EGFP; conditions: human, HepG2-A16-CD81EGFP cells; read-out: INHIBITION
Give bare numbers, in %.

Sample records with cytotoxicity at 10 µM:
molecule	measurement-unit	cytotoxicity at 10 µM
CCc1nc(C2CCCN(c3nccc(C)n3)C2)no1 (stereo unspecified)	%	-2.69
CNC(=O)[C@@H](c1ccccc1)N1CCC[C@H]1C(=O)NC1CCCCC1	%	2.35
CCCNC(=O)CN1CCCC1c1nc(Cc2ccc(F)cc2)no1 (stereo unspecified)	%	4.8
COc1ccc(C(C)Nc2ncc(C(N)=O)cc2Cl)cc1F (stereo unspecified)	%	5.37
Cc1ccc(CNC(=O)CN(CCC(N)=O)c2ccc(F)cc2)cc1	%	-2.62

Lab note: next molecule to report on.
Request: I'd like to know its cytotoxicity at 10 µM. The molecule in question is O=C1NCCCc2[nH]c(Cc3cccc(F)c3)nc21
Result: -3.47

====

assay: Toxicity liver stage against HepG2, at 10uM; format: cell-based; design: test concentration 10 uM, cell line HepG2-A16-CD81EGFP; details: human, HepG2-A16-CD81EGFP cells; read-out: INHIBITION
Give cytotoxicity at 10 µM for every item shown.
Answers are plain numbers, in %.

Would you please look over these solved cases?
compound	property-name	measurement-unit	meas-value
O=C(NCCn1nc(C2CCNC2)c2cccnc21)c1ccccc1 (stereo unspecified)	cytotoxicity at 10 µM	%	-23.9
Cn1cc2c(n1)C(CNC(=O)Cc1ccsc1)OCC2 (stereo unspecified)	cytotoxicity at 10 µM	%	0.175
Cc1cc(C)n(C2CN(CCC(=O)NCCc3ccccc3)C2)n1	cytotoxicity at 10 µM	%	11.8
Cc1ccnn1CC(=O)N1CCN(C2CCc3ccccc3C2)CC1 (stereo unspecified)	cytotoxicity at 10 µM	%	-131
Cc1nc(N2Cc3cnn(Cc4ccc(F)cc4)c3C2)no1	cytotoxicity at 10 µM	%	-3.05
COc1ccccc1CN(Cc1nc(CC(C)C)no1)C1CC1	cytotoxicity at 10 µM	%	4.93

Fill in cytotoxicity at 10 µM for each of the 5 compounds listed.
1. CCn1cc(-c2cc(C(F)F)n3nc(CC(=O)O)nc3n2)cn1
2. Cc1nc(-c2ccco2)ccc1C(=O)NCCC(=O)N1CCCCC1
3. CN(C)C(=O)N1CCn2cc(CNC(=O)CC3CC3)nc2C1
4. CNc1cc(C2CCCN2C(=O)c2ccc3oc(=O)n(C)c3c2)ccn1 (stereo unspecified)
5. Cc1ccoc1C(=O)N1C[C@@H]2COC[C@]2(COCc2cccnc2)C1

Result:
-9.49
-1.33
-80.2
1.68
5.95

====

Give measured cytotoxicity at 10 µM for each item. Keep answers brief.
assay: Toxicity liver stage against HepG2, at 10uM; assay type: cell-based; design: test concentration 10 uM, cell line HepG2-A16-CD81EGFP; conditions: human, HepG2-A16-CD81EGFP cells; read-out: INHIBITION
Give bare numbers, in %.

Sample answers from the record:
compound	meas-value
CCCc1cnc(C)nc1NC(C)Cc1cnccn1 (centres undefined)	-7.96
CC(=O)NCCCNC(=O)N(C)C(C)Cc1ccc(Cl)cc1 (centres undefined)	0.866
O=c1oc(-c2ccc(F)cc2)nn1CC1CCCCO1 (centres undefined)	2.35

Consider the following items and state reported cytotoxicity at 10 µM for each.
1. CN(Cc1ccsc1)C(=O)c1cc2c([nH]c1=O)CCC2
2. COc1ccccc1OCCNCCn1cccn1
3. NC(=O)c1ccc(CN2CCCC(N3CCCC3)C2)cc1 (centres undefined)

Result:
-12.4
-4.53
-3.63

Your task in this section: give cytotoxicity at 10 µM for each listed record.
1. Cc1nc(CN(C)CC2CCCN2c2cccnn2)oc1C (centres undefined)
2. O=C1NC2(CCN(Cc3ccoc3)CC2)CC1c1ccncc1 (centres undefined)
3. CC(CNS(N)(=O)=O)Oc1ccc(Cl)cc1 (centres undefined)
4. Cc1ccc(N2CCCC(NCc3ccc4c(c3)CCO4)C2)nn1 (centres undefined)
5. Cc1noc(Cl)c1CCC(=O)N1CCc2sccc2C1
6. CCCc1nc(CN2CCN(C(C)c3nc(C4CC4)no3)CC2)no1 (centres undefined)

Result:
-4.25
6.05
-5.37
-16.1
2.65
-8.14

Value sought for every listed compound: cytotoxicity at 10 µM.
1. CC(C)C(C#N)N1CCN(C(=O)c2cc(-c3ccccn3)no2)CC1 (centres undefined)
2. O=C(CCc1ccccn1)NC1CCCN(C2Cc3ccccc3C2)C1 (centres undefined)
3. COCC(=O)N1CCC2(CCCN(Cc3cc(OC)ccc3F)C2)C1 (centres undefined)
4. COc1cc(C)nc(N2CCN(C(=O)c3ccn(C)c(=O)c3)CC2)n1
5. C=C(C)COCCNC(=O)N1CCc2c(cccc2OC)C1
6. O=C(NCCC(=O)N1CCCc2ccccc21)c1ccc(F)cc1F
7. Cc1nc(C2CCCN2CC(=O)Nc2c(C)nn(C)c2C)no1 (centres undefined)

Result:
-1.54
1.96
-1.62
-12.8
3.55
-10.1
-3.08

Give me cytotoxicity at 10 µM for each of these compounds, listed below.
1. Cc1ccc(C(=O)N2CCCC2c2nnc3n2CCCCC3)o1 (centres undefined)
2. Cc1ccc(F)c(OC2(C(=O)O)CCN(C(=O)N3CCCC3)CC2)c1

Result:
[-6.05, -3.94]

Cited source for all entries: ChEMBL document CHEMBL4513216
